src = paper PMC3074162

target-of-assay: T1, ParB 65-139 (RHH domain) (Leifsonia xyli subsp. cynodontis …, UniProt Q6EEF9 65-139)
T1 sequence: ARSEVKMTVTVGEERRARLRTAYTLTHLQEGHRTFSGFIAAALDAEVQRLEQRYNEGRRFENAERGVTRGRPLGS
assay-overview: ITC
readout-type: Kd
Quick note: unit goes after the number.

Problem: Please indicate Kd recorded for R3-18-10A (dsDNA) DNA 1: GGAATAGGTAGAAAAGCC DNA 2: GGCTTTTCTACCTATTCC
Solution: 0.03 µM
